Below, each entry is listed with its recorded Galium plant response rating (0 to 100 scale).
System: galium (catchweed bedstraw, Galium aparine)
assay: Test C postemergence, visual plant response rating
Type: in vivo
cond: Postemergence, 31 g ai/ha
quantity measured: Galium plant response rating (0 to 100 scale)

compound string: C#CCON=C(c1cccc(OC(F)F)c1)c1c(O)c(C)nn(C)c1=O
target: galium (catchweed bedstraw, Galium aparine)
measured number: 50
//
compound string: CO/N=C(\c1c(O)c(Cl)nn(C)c1=O)c1cc(Br)cc2ccccc12
target: galium (catchweed bedstraw, Galium aparine)
measured number: 90
//
compound string: CO/N=C(/c1cccc(Br)c1)c1c(O)c(C)nn(C)c1=O
target: galium (catchweed bedstraw, Galium aparine)
measured number: 80
//
compound string: C=CCON=C(c1cc(Cl)cc(Cl)c1Cl)c1c(O)c(C)nn(C)c1=O
target: galium (catchweed bedstraw, Galium aparine)
measured number: 80
//
compound string: C#CCO/N=C(\c1ccc(F)c(Cl)c1)c1c(O)c(C)nn(C)c1=O
target: galium (catchweed bedstraw, Galium aparine)
measured number: 50
//
compound string: CCO/N=C(\c1c(O)c(Cl)nn(C)c1=O)c1cc(Br)cc2ccccc12
target: galium (catchweed bedstraw, Galium aparine)
measured number: 90
//
compound string: CO/N=C(/c1c(O)cnn(C)c1=O)c1ccc(F)c2ccccc12
target: galium (catchweed bedstraw, Galium aparine)
measured number: 10
//
compound string: CO/N=C(\c1c(OC(C)=O)c(Cl)nn(C)c1=O)c1cc(Br)cc2ccccc12
target: galium (catchweed bedstraw, Galium aparine)
measured number: 70
//
compound string: CC(C)O/N=C(/c1c(O)cnn(C)c1=O)c1ccc(F)c2ccccc12
target: galium (catchweed bedstraw, Galium aparine)
measured number: 20
